# testTarget: T1, TtSlyDcas
# T1 construct: negative control scaffold without the HER3 β-hairpin
# T1 chain: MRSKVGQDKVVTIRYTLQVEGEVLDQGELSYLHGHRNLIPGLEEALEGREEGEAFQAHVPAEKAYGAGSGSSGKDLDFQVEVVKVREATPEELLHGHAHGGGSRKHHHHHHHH
# protocolDetails: ELISA, antigen coated, hybridoma supernatant
measure: OD 405 nm
In your response, the unit should come after the numeric value.

So what's the measured OD 405 nm for this one? anti-HER3 antibody M-46-01 (antibody, V domains shown, mouse hybridoma clone) VH: QIQLQQSGPQLVRPGASVKISCKASGYSFTSYWMHWVKQRPGRGLEWIGMIDPSDGVTRLNQKFKDKATLTVDNSSSTAYMQLSSPTSEDSAVHYCARVDVLYWYFDVWGAGTTVTVSS VL: DIVLTQSPASLAVSLGQRATISCRASKSISISGYSYMHWYQQKAGQPPKLLIYLTSNLESGVPARFSGSGSGTDFTLNIHPVEEEDAATYYCHHSRELPFTFGSGTKLEIK 0.038 OD

So what's the measured OD 405 nm for this one? anti-HER3 antibody M-17-07 (antibody, V domains shown, mouse hybridoma clone) VH: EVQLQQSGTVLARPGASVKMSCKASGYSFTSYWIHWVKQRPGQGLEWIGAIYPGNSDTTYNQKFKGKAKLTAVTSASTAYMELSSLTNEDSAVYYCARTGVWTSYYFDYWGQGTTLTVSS VL: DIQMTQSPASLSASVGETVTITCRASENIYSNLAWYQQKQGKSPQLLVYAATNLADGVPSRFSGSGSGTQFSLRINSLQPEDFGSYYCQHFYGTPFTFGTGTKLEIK 0.022 OD

So what's the measured OD 405 nm for this one? anti-HER3 antibody M-08-11 (antibody, V domains shown, mouse monoclonal antibody from hybridoma, tested as hybridoma supernatant or as antibody; also called M-011) VH: QAYLQQSGAELMRPGASVRMSCQASGYTFTSYTIHWLKQTPRQGLEWIGAIYPRNGDFSYNQKFKDKASLTVDTSSSTAYMHLSSLTSEDSAVYFCARTINYGDWFAYWGQGTLVTVSA VL: DIQMIQSPASLFVSEGETVIITCRASENIYSNLAWYHQKKGKSPQVLVYAAIKLADGVPLRFSGSGSGTQFSLKINSLQSEDFGSYYCQHFWGPPYTFGSGTNLEIK 0.038 OD
